Test: Example 2: ocular tissue pharmacokinetics after topical dose, decreasing dose volume at same total amount of drug
Format: in vivo, New Zealand Composite pigmented rabbits
Details: New Zealand Composite pigmented, rabbit, aqueous humor, topical or ocular, 10 ug; 30 μL/eye of 0.33 mg/mL (10 μg), topical ocular
MEASURE: Cmax (ng/mL)
Write down the numeric answer in ng/mL and omit the unit.

Specify Cmax for Cc1ccc2c(NCC(O)(CC(C)(C)c3cc(F)cc4c3OCC4)C(F)(F)F)cccc2n1 (stereo not shown) and stop. 0.188

###

Test: Example 2: ocular tissue pharmacokinetics after topical dose, decreasing dose volume at same total amount of drug
Format: in vivo, New Zealand Composite pigmented rabbits
Details: New Zealand Composite pigmented, rabbit, cornea, topical or ocular, 10 ug; 100 μL/eye of 0.1 mg/mL (10 μg), topical ocular
MEASURE: Cmax (ng/g)
The reply should contain only the number, in ng/g.

Give the reported value of Cmax for this record: Cc1ccc2c(NCC(O)(CC(C)(C)c3cc(F)cc4c3OCC4)C(F)(F)F)cccc2n1 (stereo not shown) 452

###

Assay: Example 2: ocular tissue pharmacokinetics after topical dose, decreasing dose volume at same total amount of drug
Type: in vivo, New Zealand Composite pigmented rabbits
Conditions: New Zealand Composite pigmented, rabbit, aqueous humor, topical or ocular, 10 ug; 30 μL/eye of 0.33 mg/mL (10 μg), topical ocular
MEASURE: Tmax
Write the quantity with the unit trailing the number.

Write down Tmax measured for item Cc1ccc2c(NCC(O)(CC(C)(C)c3cc(F)cc4c3OCC4)C(F)(F)F)cccc2n1 (stereo not shown) 2 h

###

Experiment: Example 2: ocular tissue pharmacokinetics after topical dose, decreasing dose volume at same total amount of drug
Format: in vivo, New Zealand Composite pigmented rabbits
Settings: New Zealand Composite pigmented, rabbit, aqueous humor, topical or ocular, 10 ug, Aqueous Humor; 10 μL/eye of 1 mg/mL (10 μg), topical ocular; read-out: AUC(0-t)
MEASURE: AUC(0-t) (ng·h/mL)
Kindly answer with a numeric value in ng·h/mL, unit omitted.

In one line, give reported AUC(0-t) of the entry Cc1ccc2c(NCC(O)(CC(C)(C)c3cc(F)cc4c3OCC4)C(F)(F)F)cccc2n1 (stereo not shown) [BOL-303242-X] . 8

###

Experiment: Example 1: ocular tissue pharmacokinetics after topical dose, increasing dose volume at constant drug concentration
Type: in vivo, pigmented male rabbits (Dutch Belted)
Settings: male, Dutch Belted, rabbit, topical or ocular, 10 ug; Aqueous Humor; 100 μL of 0.1 mg/mL suspension (10 μg), topical ocular
MEASURE: Cmax

# return recorded Cmax for input Cc1ccc2c(NCC(O)(CC(C)(C)c3cc(F)cc4c3OCC4)C(F)(F)F)cccc2n1 (stereo not shown) [BOL-303242-X] < 1 ng/mL

###

Assay: Example 2: ocular tissue pharmacokinetics after topical dose, decreasing dose volume at same total amount of drug
Format: in vivo, New Zealand Composite pigmented rabbits
Conditions: New Zealand Composite pigmented, rabbit, iris/ciliary body, topical or ocular, 10 ug; 30 μL/eye of 0.33 mg/mL (10 μg), topical ocular
MEASURE: Cmax (ng/g)
Expressed in ng/g, but write only the number.

Supply recorded Cmax for Cc1ccc2c(NCC(O)(CC(C)(C)c3cc(F)cc4c3OCC4)C(F)(F)F)cccc2n1 (stereo not shown) here. 41.9

###

Assay: Example 2: ocular tissue pharmacokinetics after topical dose, decreasing dose volume at same total amount of drug
Assay type: in vivo, New Zealand Composite pigmented rabbits
Settings: New Zealand Composite pigmented, rabbit, aqueous humor, topical or ocular, 10 ug; 10 μL/eye of 1 mg/mL (10 μg), topical ocular
MEASURE: Cmax (ng/mL)
Unit ng/mL implied. Number only.

Give me measured Cmax, please, for this compound: Cc1ccc2c(NCC(O)(CC(C)(C)c3cc(F)cc4c3OCC4)C(F)(F)F)cccc2n1 (stereo not shown) 0.17
